target: Schistosoma mansoni thioredoxin glutathione reductase (TGR); experiment: qHTS Assay for the Inhibitors of Schistosoma Mansoni Peroxiredoxins; conditions: purified TGR, DTNB reduction, TNB absorbance 405 nm; series mostly up to 114 µM; note: nearly all actives have a fitted effect of over 60% in size
The campaign covered roughly 360,000 compounds. About 11,000 (3.1%) were called active. Roughly 4% stayed inconclusive and do not appear here. Calls come from the whole dose curve; as a rule, active = well fitted inhibition curve with a large enough effect; inconclusive = small, poorly fitted or top-dose-only effect; inactive = no such curve, though single readings can be large or run the other way. For the sample, actives were picked, then their nearest neighbours and some compounds at random.
Please reply with one of these outcomes: Y = active, N = inactive

The examples below pair each entry with its known result.
compound="O=C1C(=O)N(CCN2CCOCC2)C(c2cccc(Cl)c2)/C1=C(/O)c1ccc2c(c1)OCO2 (stereo not given)" class_label=Y
compound="O=C1C(=O)N(CCCO)C(c2ccccc2)/C1=C(\\O)c1ccc(Br)cc1 (stereo not given)" class_label=N
compound="CC1Cc2cc(/C(O)=C3\\C(=O)C(=O)N(CCN4CCOCC4)C3c3ccccc3F)ccc2O1 (stereo not given)" class_label=N
compound="O=C1C(=O)N(CCN2CCOCC2)C(c2ccccn2)/C1=C(/O)c1ccc(Cl)cc1 (stereo not given)" class_label=Y

In the following, a different compound is considered.
IN: Called result for Cc1ccc2onc(CC(=O)N3CCN(c4ccc(Cl)cc4)CC3)c2c1
OUT: N
